# SYSTEM TESTED: Galectin-9 (Homo sapiens, UniProt O00182)
# Sequence (O00182 whole entry): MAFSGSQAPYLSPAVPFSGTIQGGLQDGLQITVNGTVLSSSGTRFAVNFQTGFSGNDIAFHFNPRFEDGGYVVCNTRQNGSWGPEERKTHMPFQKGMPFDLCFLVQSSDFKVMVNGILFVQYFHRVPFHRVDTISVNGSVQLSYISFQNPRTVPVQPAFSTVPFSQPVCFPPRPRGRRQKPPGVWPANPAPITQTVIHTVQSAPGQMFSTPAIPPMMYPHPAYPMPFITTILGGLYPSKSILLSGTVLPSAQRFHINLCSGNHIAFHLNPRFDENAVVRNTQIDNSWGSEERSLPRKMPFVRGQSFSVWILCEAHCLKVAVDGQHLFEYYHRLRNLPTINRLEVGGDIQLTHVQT
ENDPOINT NAME: IC50 (µM)
One number for each entry, in µM.

Ask: Check the records and state IC50 for CO[C@@H]1[C@@H](n2cc(-c3ccc(Cl)c(F)c3F)nn2)[C@@H](O)[C@@H](CO)O[C@H]1c1nc(C)nn1-c1ccc2ncsc2c1
Reply: 3.53

* * *

Would you mind telling me the reported Papp at 4 h of each entry?
# TEST METHOD NOTES: Permeability of the compound at pH 5.5 incubated for 4 hrs by PAMPA based SpectraMax UV-plate reader analysis
# Assay type: ADME
# CONDITIONS: read-out: permeability
One number for each entry, in ×10⁻⁶ cm/s.

Examples with answers:
CO[C@@H]1[C@@H](n2cc(-c3cc(F)c(Cl)c(F)c3)nn2)[C@@H](O)[C@@H](CO)O[C@H]1c1nc(C)nn1-c1ccc2ncsc2c1 | 59.1
Cc1nc([C@@H]2O[C@H](CO)[C@H](O)[C@H](n3cc(-c4ccc(Cl)c(F)c4F)nn3)[C@H]2O)n(-c2ccc3ncsc3c2)n1 | 24.1
CO[C@@H]1[C@@H](n2cc(-c3cc(F)c(F)c(F)c3)nn2)[C@@H](O)[C@@H](CO)O[C@H]1C(=O)N(C)c1ccc2nc(C)sc2c1 | 29.8
Cc1nc2ccc(N(C)C(=O)[C@@H]3O[C@H](CO)[C@H](O)[C@H](n4cc(-c5cc(F)c(F)c(F)c5)nn4)[C@H]3O)cc2s1 | 1.9
CO[C@@H]1[C@@H](n2cc(-c3cc(F)c(Cl)c(F)c3)nn2)[C@@H](O)[C@@H](CO)O[C@H]1C(=O)N(C)c1ccc2ncsc2c1 | 16

Would you mind giving Papp at 4 h for every compound in the list below?
1. Cc1nc([C@@H]2O[C@H](CO)[C@H](O)[C@H](n3cc(-c4cc(F)c(Br)c(F)c4)nn3)[C@H]2O)n(-c2ccc3ncsc3c2)n1
2. CO[C@@H]1[C@@H](n2cc(-c3cc(F)c(F)c(F)c3)nn2)[C@@H](O)[C@@H](CO)O[C@H]1C(=O)N(C)c1ccc2ncsc2c1
3. CO[C@H]1C(C(=O)N(C)c2ccc3ncsc3c2)O[C@H](CO)[C@H](O)[C@@H]1n1cc(-c2ccc(Cl)c(F)c2F)nn1 (single isomer, unassigned)
4. CO[C@@H]1[C@@H](n2cc(-c3ccc(Cl)c(F)c3F)nn2)[C@@H](O)[C@@H](CO)O[C@H]1c1nc(C)nn1-c1ccc2ncsc2c1
5. CO[C@@H]1[C@@H](n2cc(-c3ccc(Br)c(F)c3F)nn2)[C@@H](O)[C@@H](CO)O[C@H]1c1nc(C)nn1-c1ccc2ncsc2c1

Reply:
1. 5.2
2. 14.4
3. 29.4
4. 73.1
5. 104
